The measured values listed here are drawn from patent US10183155B2.

experiment: Doxorubicin concentration in tumor tissue surrounding the implanted device (fluorescent imaging); assay type: in vivo, mice; conditions: mouse, pure doxorubicin in microwell, 20 hours post implantation, 0-130 μm from the microwell
readout.name: concentration at 20 h

Qu. Item under review: COc1cccc2c1C(=O)c1c(O)c3c(c(O)c1C2=O)C[C@@](O)(C(=O)CO)C[C@@H]3O[C@H]1C[C@H](N)[C@H](O)[C@H](C)O1 [doxorubicin] . Reported concentration at 20 h?
Ans. 15000 to 20000 ng/g

---

test: Doxorubicin concentration in tumor tissue surrounding the implanted device (fluorescent imaging); format: in vivo, mice; details: mouse, pure doxorubicin in microwell, 20 hours post implantation, approximately 200-300 μm from the microwell
readout.name: concentration at 20 h

Qu. What value of concentration at 20 h has been recorded for this entry: COc1cccc2c1C(=O)c1c(O)c3c(c(O)c1C2=O)C[C@@](O)(C(=O)CO)C[C@@H]3O[C@H]1C[C@H](N)[C@H](O)[C@H](C)O1 [doxorubicin]
Ans. 3000 to 7000 ng/g
